Parameter koff: see the listing below.
System Under Test: T1, GST-human NOGO-A56 (human, UniProt Q9NQC3 586-785)
T1 construct: also called hNOGO; recombinant human NOGO; not shown: Glutathione S-transferase (GST) tag encoded by vector pGEX-6P1, N-terminal to the NOGO-A fragment; the tag and linker se
T1 sequence: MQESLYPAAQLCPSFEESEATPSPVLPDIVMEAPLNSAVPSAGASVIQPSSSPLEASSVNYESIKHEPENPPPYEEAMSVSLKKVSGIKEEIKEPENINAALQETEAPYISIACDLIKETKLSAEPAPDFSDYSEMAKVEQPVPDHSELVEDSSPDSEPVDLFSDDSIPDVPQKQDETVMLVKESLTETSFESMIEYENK
Run Description: SPR (Biacore 3000), GST-human NOGO-A56 on CM5 chip, antibody as analyte; single experiment
Description: The binding kinetics of the anti-NOGO monoclonal antibody (mAb) to recombinantly expressed human NOGO-A (GST-human NOGO-A56) was analysed using the Biacore3000 biosensor. The hNOGO-A chip was prepared as follows: hNOGO (GST-human NOGO-A56) was immobilised to a CM5 chip by primary amine coupling using the Biacore Wizard program designed for targeted immobilisation levels. […]
Your answer should be a plain number; it is taken to be in s⁻¹.

Example entries and their recorded answers appear below.
Requested field: koff. Item: H14L16 (antibody, human IgG1, kappa, V domains shown, Humanised 2A10; human gamma-1 mutated constant region, human kappa) VH: QVQLVQSGAEVVKPGASVKLSCKASGYTFTSYWMHWVKQAPGQGLEWIGNINPSNGGTNYNEKFKSRATLTRDTSTSTAYMELSSLRSEDTAVYYCELGQGYWGQGTLVTVSS VL: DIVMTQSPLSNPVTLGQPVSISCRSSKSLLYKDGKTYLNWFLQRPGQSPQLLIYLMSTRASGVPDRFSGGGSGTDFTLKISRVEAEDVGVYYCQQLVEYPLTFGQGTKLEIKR 0.00739

Try this binder next: H1L11 (antibody, human IgG1, kappa, V domains shown, human gamma-1 mutated constant region, human kappa) VH: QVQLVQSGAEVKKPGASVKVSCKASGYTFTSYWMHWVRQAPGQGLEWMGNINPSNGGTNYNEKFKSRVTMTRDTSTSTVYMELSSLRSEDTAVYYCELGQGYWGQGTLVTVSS VL: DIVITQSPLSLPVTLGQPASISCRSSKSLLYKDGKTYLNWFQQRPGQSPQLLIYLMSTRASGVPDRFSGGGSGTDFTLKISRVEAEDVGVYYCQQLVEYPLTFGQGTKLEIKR 0.0284

Try this binder next: HcLc (chimera of 2A10: murine 2A10 VH and VL with human IgG constant regions) (antibody, V domains shown, also called 2A10 chimeric antibody; the chimera) VH: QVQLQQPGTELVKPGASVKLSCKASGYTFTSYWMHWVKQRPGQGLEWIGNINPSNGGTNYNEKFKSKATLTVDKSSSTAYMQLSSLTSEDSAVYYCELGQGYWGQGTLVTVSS VL: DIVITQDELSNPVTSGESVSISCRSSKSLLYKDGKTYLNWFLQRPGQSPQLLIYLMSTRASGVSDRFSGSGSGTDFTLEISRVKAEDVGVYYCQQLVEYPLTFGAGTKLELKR 0.00412

Try this binder next: H6L13 (antibody, human IgG1, kappa, V domains shown, Humanised 2A10; human gamma-1 mutated constant region, human kappa; also called H6L13 FL) VH: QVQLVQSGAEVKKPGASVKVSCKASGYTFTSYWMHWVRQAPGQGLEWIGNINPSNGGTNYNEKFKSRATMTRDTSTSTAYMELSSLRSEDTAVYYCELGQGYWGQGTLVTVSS VL: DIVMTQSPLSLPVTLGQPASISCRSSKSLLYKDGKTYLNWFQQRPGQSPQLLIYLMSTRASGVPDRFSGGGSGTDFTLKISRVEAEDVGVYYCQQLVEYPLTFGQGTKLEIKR 0.013

Could you now look at the following binder, please?
Requested field: koff. Item: H14L18 (antibody, human IgG1, kappa, V domains shown, Humanised 2A10; human gamma-1 mutated constant region, human kappa) VH: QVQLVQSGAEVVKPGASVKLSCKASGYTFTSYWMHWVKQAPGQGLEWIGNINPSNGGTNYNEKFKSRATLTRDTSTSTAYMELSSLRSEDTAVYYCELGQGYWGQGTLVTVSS VL: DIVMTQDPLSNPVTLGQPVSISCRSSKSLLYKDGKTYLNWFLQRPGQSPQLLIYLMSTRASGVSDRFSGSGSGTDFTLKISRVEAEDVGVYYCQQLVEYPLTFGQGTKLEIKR 0.00869
